B1: OR4K15 (parent)
chain: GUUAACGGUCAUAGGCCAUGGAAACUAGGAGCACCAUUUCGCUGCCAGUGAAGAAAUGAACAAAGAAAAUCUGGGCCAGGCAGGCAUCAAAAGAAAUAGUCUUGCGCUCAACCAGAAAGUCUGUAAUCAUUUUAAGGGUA

variants of: B1; test: self-cleavage, relative activity (ratio to wild type); higher = more cleavage; in vitro, sequencing; the parent is a self-cleaving ribozyme
# if value of self-cleavage reaches 1, tag Met; if it stays below, tag Not met

Prompt line: Does the variant G84C U100C have recorded self-cleavage that is 1 or more?
Response line: Not met

Prompt line: Kindly determine if self-cleavage recorded for A23G A95U is above or exactly 1.
Response line: Met

Further cases:
Prompt line: Would you say U26A A69G shows self-cleavage at minimum 1?
Response line: Met

The origin of these recorded values is the RNAGym collection of RNA variant scans (doi:10.7554/elife.90254).
